The following compounds are listed with their measured growth values.
# Tested on: SK-MEL-28 melanoma
# assay details: NCI-60 one-dose screen, 48 h (100 = growth as untreated, 0 = no growth, -100 = all killed)
# study conditions: 10 µM unless noted
Compounds without any hit were thinned out: in the full panel of roughly 83,000, 20% have a hit.
Unit % implied. Number only.

• COc1ccc2c(c1)oc1c(C)c3c(c(C)c12)C(=O)N(N)C3=O = 51
• NS(=O)(=O)c1ccc(CCN2C(=O)C=CC2=O)cc1 = 107
• COc1cc(C2C3CC4CCCC[C@H]4N3[C@@]3(C(=O)Nc4cc(Cl)ccc43)C2C(=O)c2nc3ccccc3[nH]2)cc(OC)c1OC (stereo partly specified) = 82.4

# return recorded growth for input COc1cc(NC(C)CCCNC(=O)CCC(=O)NCCCNCCCCCCCCNCCCNC(=O)CCC(=O)NCCCC(C)Nc2cc(OC)cc3cccnc23)c2ncccc2c1 (stereo unspecified) 78.1

Specify measured growth for CN1CCN(c2ccc(NC3=C(Cl)C(=O)c4ncccc4C3=O)cc2C(F)(F)F)CC1 . 76.9

Please report the measured growth for CC(=O)[C@@H]1CC[C@]2(CO)CC[C@]3(C)[C@H](CC[C@@H]4[C@@]5(C)CCCNC(C)(C)[C@@H]5CC[C@]43C)[C@@H]12 113

FYI, the data here is from PubChem BioAssay (NCI).
